From: PubChem BioAssay AID1963831

Known viability, T/C of a selection of molecules
Test system: 889142-216-R-J1-PDC complex spheroid viability
Measurement Notes: Anticancer human tumor 889142-216-R-J1-PDC patient-derived bladder carcinoma cell line growth inhibition [POLQ]
Applied Conditions: second compound 1 µM; first compound 3.16 µM; stronger effect = lower value
Response body: numeric value in %, unit text excluded.

Field: example entries. Status: answers known.
Challenge: viability, T/C lookup needed for CCc1cc2c(N3CCc4c(cc(Cn5ccnc5)cc4-c4cn(C)nc4C(F)(F)F)C3=O)ccnc2c(OC)n1 + COC1C(OC(N)=O)C(O)C(Oc2ccc3c(O)c(NC(=O)c4ccc(O)c(CC=C(C)C)c4)c(=O)oc3c2C)OC1(C)C , thanks.
Response given: 83.9

Challenge: Fill in: viability, T/C of CC(C)n1c(=O)n(C)c2cnc3cc(F)c(-c4ccc(OCCCN5CCCCC5)nc4)cc3c21 + Cc1cccc(N(C)C(=O)C2C(O)CCN2c2nc(C)cc(C(F)(F)F)c2C#N)c1 is ___
Response given: 57

Challenge: Would you mind telling me what viability, T/C value was observed for COc1cc(C2c3cc4c(cc3C(OC3OC5COC(C)OC5C(O)C3O)C3COC(=O)C23)OCO4)cc(OC)c1O (configuration not stated) + COC1C(OC(N)=O)C(O)C(Oc2ccc3c(O)c(NC(=O)c4ccc(O)c(CC=C(C)C)c4)c(=O)oc3c2C)OC1(C)C ?
Response given: 60.4

Challenge: What viability, T/C value was documented for this molecule, COc1ccc([C@@H](O)c2cc(-c3ncnc4cc(N5CCOCC5)ccc34)c(F)cc2Cl)nn1 + Nc1ccc(C#CCN(C(=O)Cc2ncc(C(F)(F)F)cc2C(F)(F)F)c2ccc(F)cc2)nn1 ?
Response given: 62.2

Challenge: Fill in: viability, T/C of O=C(Nc1ccc(O)c(NS(=O)(=O)c2ccc(F)cc2)c1)c1ccc(-c2ccccc2)cc1 + Nc1ccc(C#CCN(C(=O)Cc2ncc(C(F)(F)F)cc2C(F)(F)F)c2ccc(F)cc2)nn1 is ___
Response given: 119

Continuing:
Challenge: Quick check: viability, T/C of C=CC(=O)N1CCN(c2nc(=O)n(-c3c(C)ccnc3C(C)C)c3nc(-c4c(O)cccc4F)c(F)cc23)C(C)C1 (configuration not stated) + Nc1ccc(C#CCN(C(=O)Cc2ncc(C(F)(F)F)cc2C(F)(F)F)c2ccc(F)cc2)nn1 ?
Response given: 116

Challenge: Name the reported viability, T/C value associated with the molecule C=CC(=O)N1CCN(c2nc(=O)n(-c3c(C)ccnc3C(C)C)c3nc(-c4c(O)cccc4F)c(F)cc23)C(C)C1 (configuration not stated) + COC1C(OC(N)=O)C(O)C(Oc2ccc3c(O)c(NC(=O)c4ccc(O)c(CC=C(C)C)c4)c(=O)oc3c2C)OC1(C)C
Response given: 112

###

Tested on: 889142-216-R-J1-PDC complex spheroid viability
Measurement Notes: Anticancer human tumor 889142-216-R-J1-PDC cell line growth inhibition [POLQ];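 further: spheroids exposed to compounds for seven days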
Applied Conditions: curve of first compound; second compound 0.0316 µM
Entries and their pIC50
Kindly note that pIC50 refers to -log10 of the concentration in mol/L and answer with the value alone.

Previously resolved entries follow.
Challenge: Lookup: pIC50 / 889142-216-R-J1-PDC complex spheroid viability / CC1COCCN1c1cc(C2(S(C)(=N)=O)CC2)nc(-c2ccnc3[nH]ccc23)n1 (stereo unspecified) + COC1C(OC(N)=O)C(O)C(Oc2ccc3c(O)c(NC(=O)c4ccc(O)c(CC=C(C)C)c4)c(=O)oc3c2C)OC1(C)C
Response given: 5.71

Challenge: Recall the recorded pIC50 for CC1COCCN1c1cc(C2(O)CC3CCC(C2)O3)c2cnn(-c3ccn[nH]3)c2n1 (stereo unspecified) + Cc1cccc(N(C)C(=O)C2C(O)CCN2c2nc(C)cc(C(F)(F)F)c2C#N)c1 with 889142-216-R-J1-PDC complex spheroid viability and state it.
Response given: 6.88

Challenge: Give pIC50 (889142-216-R-J1-PDC complex spheroid viability) of the following compound: CC(C)n1c(=O)n(C)c2cnc3cc(F)c(-c4ccc(OCCCN5CCCCC5)nc4)cc3c21 + Cc1cccc(N(C)C(=O)C2C(O)CCN2c2nc(C)cc(C(F)(F)F)c2C#N)c1
Response given: 5.41

Challenge: // fetch 889142-216-R-J1-PDC complex spheroid viability pIC50 for CC1COCCN1c1cc(C2(O)CC3CCC(C2)O3)c2cnn(-c3ccn[nH]3)c2n1 (stereo unspecified) + Nc1ccc(C#CCN(C(=O)Cc2ncc(C(F)(F)F)cc2C(F)(F)F)c2ccc(F)cc2)nn1
Response given: 7.00

The record that follows has no pIC50 shown yet.
Challenge: Hello, I am looking for reported pIC50 with 889142-216-R-J1-PDC complex spheroid viability for CC(=O)O[C@H]1C(=O)[C@@]2(C)[C@H]([C@H](OC(=O)c3ccccc3)[C@]3(O)C[C@H](OC(=O)[C@H](O)[C@@H](NC(=O)c4ccccc4)c4ccccc4)C(C)=C1C3(C)C)[C@]1(OC(C)=O)CO[C@@H]1C[C@@H]2O + Nc1ccc(C#CCN(C(=O)Cc2ncc(C(F)(F)F)cc2C(F)(F)F)c2ccc(F)cc2)nn1 . Could you help?
Response given: 7.14
